Assay: NCI Yeast Anticancer Drug Screen. Data for the sgs1 mgt1 strain (AID 161);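 further: 0% = growth of cultures given vehicle only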
Conditions: S. cerevisiae sgs1 mgt1 strain, at 50.0 µM, stronger effect = higher value
This is part of a sample that, as a whole, favours compounds with a hit. Of some 79,000 tested, about 15% had one in any assay.
Examples of compounds with documented growth inhibition follow.
Quick reminder: number only, in %, skip the unit.

Consider the reported growth inhibition for these compounds:
chem.smiles	growth inhibition [%]
CCCCc1c2c(nc3c1CCc1cc4cc5c(nc4nc1-3)-c1nc3c(c(CCCC)c1CC5)CCCC3=O)C(=O)CCC2	98
C[C@]12C[C@H](c3ccccc3)Nc3ccccc3N1C(c1ccccc1)=NO2	81.5
Nc1ccc(C(=O)N/N=C\c2cccc3ccccc23)cc1	88.9

Kindly review the next compound as well.
According to the records, this compound CCOc1ccc(Nc2nc(C)c(C(=O)/C=C/c3ccc(Cl)cc3Cl)s2)cc1 displays growth inhibition of 33

---

Experiment: NCI Yeast Anticancer Drug Screen. Data for the mlh1 rad18 strain (AID 175)
Settings: S. cerevisiae mlh1 rad18 strain growth inhibition; at 5.0 µM (retest, dose inferred, filed as 0.5); stronger effect = higher value
Compounds without any hit were thinned out: in the full panel of roughly 79,000, 15% have a hit.
Returns Criterion met if the recorded growth inhibition is greater than or equal to 20%, and Criterion not met otherwise.

Recorded results for 10 molecules are shown here.
molecule	group
O=C1c2ccccc2C(=O)c2ncccc21	Criterion met
Nn1c2ccccc2c2ccccc21	Criterion not met
COC1CC(OC(=O)c2ccccc2)C2OC(c3ccccc3)OCC2O1 (stereo not drawn)	Criterion not met
S=C(NN1CCOCC1)SSC(=S)NN1CCOCC1	Criterion met
CCCCCCCCCCNC(=O)C[n+]1cccc(C(=O)Nc2ccccc2)c1	Criterion met
O=C1C=CC(=O)c2c(O)c(N3CCC[C@@H]3CO)c(Cl)c(O)c21	Criterion met
S=C(S)NCCN1CCNC1=S	Criterion not met
Cc1ccc(-c2n[nH]c(=O)n2/N=C\c2ccccc2)cc1	Criterion not met
CC(C)/C(Cl)=N/OC(NC(=O)Nc1ccc(Cl)c(Cl)c1)(C(F)(F)F)C(F)(F)F	Criterion met
Oc1cc(CNCc2ccccc2)c(O)c(CNCc2ccccc2)c1	Criterion not met

Ask | Hi team, for COC1=CC(=O)C(O)=C/C1=C\C=C\c1ccccc1 , is the recorded growth inhibition at or above 20%?
Reply | Criterion met

Ask | Evaluate CC(C)C1(C)C(C#N)(C#N)C1(C#N)C#N : growth inhibition at minimum 20%?
Reply | Criterion not met

Ask | # check: growth inhibition of O=C1C=CC(=O)C2C1Cc1ccccc1C2c1ccccc1 (stereo not drawn) is greater than or equal to 20%
Reply | Criterion met

Ask | Exam item: decide whether the reported growth inhibition for O=C(c1ccccc1)c1ccc2c(c1Cl)C(=O)c1ccccc1C2=O is at least 20%.
Reply | Criterion not met

Ask | Entry Cc1ccccc1C1SCc2nc3ccccc3n21 (stereo not drawn) : is its growth inhibition no less than 20%?
Reply | Criterion not met

Ask | Could you verify whether the entry O=C(c1cc2c(C(F)(F)F)onc2c2ccccc12)C(F)(F)F shows growth inhibition of no less than 20%?
Reply | Criterion not met

Ask | Is reported growth inhibition greater than or equal to 20% here: C=C(C)COc1cc(NC(=S)OC(C)C)ccc1Cl
Reply | Criterion not met

Ask | Is the recorded value of growth inhibition equal to or greater than 20% for this molecule? Cc1cc(Br)c2ccccc2c1N
Reply | Criterion not met

src = PubChem BioAssay (NCI)
